Origin of measurements: PubChem BioAssay (NCATS)

- Test system: FAB9
- test-description: qHTS profiling for inhibitors of Plasmodium falciparum proliferation (AID 504749); also: nearly all actives have a fitted effect of over 60% in size; also: potency is read from the fitted curve at half-maximal effect
- condition-notes: P. falciparum in erythrocytes, SYBR Green DNA, 72 h; series mostly up to 12.8 µM
Records with an inconclusive call do not appear. Active and inactive are the calls of the source. Calls follow the shape of the dose curve; as a rule, active = well fitted inhibition curve with a large enough effect; inconclusive = small, poorly fitted or top-dose-only effect; inactive = flat fitted curve, though single readings scatter.
test-readout: Potency

molecule=O=C(O)COCCN1CCN([C@@H](c2ccccc2)c2ccc(Cl)cc2)CC1 experimental_system=FAB9 experimental_value=inactive
molecule=CC(=O)[C@@]1(O)CC[C@H]2[C@H]3C[C@@H](C)C4=CC(=O)C=C[C@]4(C)[C@@]3(F)[C@@H](O)C[C@]21C experimental_system=FAB9 experimental_value=inactive
molecule=COc1cc(N[C@@H](C)CCCN)c2ncccc2c1 experimental_system=FAB9 experimental_value="891 nM (active)"
molecule=CC(C)(C)NC[C@H](O)COc1cccc2c1CCC(=O)N2 experimental_system=FAB9 experimental_value=inactive
molecule=CCN1CCC[C@@H](OC(=O)C(c2ccccc2)c2ccccc2)C1 experimental_system=FAB9 experimental_value=inactive
molecule=COc1ccccc1OC[C@H](O)CO experimental_system=FAB9 experimental_value=inactive
molecule=CC(=O)O[C@H]1C[C@@]2(C)[C@H](C[C@@H](O)[C@H]3[C@@]4(C)CC[C@@H](O)[C@@H](C)[C@H]4CC[C@@]32C)C1=C(CCC=C(C)C)C(=O)O experimental_system=FAB9 experimental_value=inactive
molecule=CCN(CC)[C@@H](C)CN1c2ccccc2Sc2ccccc21 experimental_system=FAB9 experimental_value=inactive
molecule=CC(=C(CCOP(=O)(O)O)SC(=O)c1ccccc1)N(C=O)Cc1cnc(C)nc1N experimental_system=FAB9 experimental_value=inactive
molecule=CN1CCC[C@@H](CC2c3ccccc3Sc3ccccc32)C1 experimental_system=FAB9 experimental_value=inactive
molecule=C[C@@H](C(=O)O)c1ccc(C(=O)c2ccccc2)s1 experimental_system=FAB9 experimental_value=inactive
molecule=NC[C@@H]1O[C@H](O[C@@H]2[C@H](O[C@@H]3O[C@H](CO)[C@@H](O)[C@@H]3O)[C@@H](O)[C@@H](N)C[C@H]2N)[C@@H](N)[C@H](O)[C@@H]1O experimental_system=FAB9 experimental_value=inactive
molecule=CN1CCO[C@H](c2ccccc2)c2ccccc2C1 experimental_system=FAB9 experimental_value=inactive
molecule=CCc1c(C)[nH]c2c1C(=O)[C@H](CN1CCOCC1)CC2 experimental_system=FAB9 experimental_value=inactive
molecule="O=C1OC(CO)C(O)C(O)C1O (stereo not drawn)" experimental_system=FAB9 experimental_value=inactive
molecule=CCC(=O)O[C@@H]1[C@H](C)O[C@H](O[C@H]2[C@@H](N(C)C)[C@H](O)[C@@H](O[C@@H]3[C@@H](CC=O)C[C@@H](C)[C@@H](O)/C=C\C=C/C[C@@H](C)OC(=O)C[C@@H](OC(=O)CC)[C@H]3OC)O[C@H]2C)C[C@]1(C)O experimental_system=FAB9 experimental_value=inactive
molecule=CC(=O)O[C@]1(C(C)=O)CC[C@@H]2[C@@H]3C=C(C)C4=CC(=O)CC[C@@]4(C)[C@H]3CC[C@]21C experimental_system=FAB9 experimental_value=inactive
molecule="CC1C2CCC3C4CC=C5CC(N(C)C)CC[C@@]5(C)C4CC[C@@]32CN1C (stereo partly drawn)" experimental_system=FAB9 experimental_value=inactive

---

- experimental-system: Rap guanine nucleotide exchange factor 3 (Homo sapiens) (UniProt O95398)
- Sequence (O95398 whole entry, looked up): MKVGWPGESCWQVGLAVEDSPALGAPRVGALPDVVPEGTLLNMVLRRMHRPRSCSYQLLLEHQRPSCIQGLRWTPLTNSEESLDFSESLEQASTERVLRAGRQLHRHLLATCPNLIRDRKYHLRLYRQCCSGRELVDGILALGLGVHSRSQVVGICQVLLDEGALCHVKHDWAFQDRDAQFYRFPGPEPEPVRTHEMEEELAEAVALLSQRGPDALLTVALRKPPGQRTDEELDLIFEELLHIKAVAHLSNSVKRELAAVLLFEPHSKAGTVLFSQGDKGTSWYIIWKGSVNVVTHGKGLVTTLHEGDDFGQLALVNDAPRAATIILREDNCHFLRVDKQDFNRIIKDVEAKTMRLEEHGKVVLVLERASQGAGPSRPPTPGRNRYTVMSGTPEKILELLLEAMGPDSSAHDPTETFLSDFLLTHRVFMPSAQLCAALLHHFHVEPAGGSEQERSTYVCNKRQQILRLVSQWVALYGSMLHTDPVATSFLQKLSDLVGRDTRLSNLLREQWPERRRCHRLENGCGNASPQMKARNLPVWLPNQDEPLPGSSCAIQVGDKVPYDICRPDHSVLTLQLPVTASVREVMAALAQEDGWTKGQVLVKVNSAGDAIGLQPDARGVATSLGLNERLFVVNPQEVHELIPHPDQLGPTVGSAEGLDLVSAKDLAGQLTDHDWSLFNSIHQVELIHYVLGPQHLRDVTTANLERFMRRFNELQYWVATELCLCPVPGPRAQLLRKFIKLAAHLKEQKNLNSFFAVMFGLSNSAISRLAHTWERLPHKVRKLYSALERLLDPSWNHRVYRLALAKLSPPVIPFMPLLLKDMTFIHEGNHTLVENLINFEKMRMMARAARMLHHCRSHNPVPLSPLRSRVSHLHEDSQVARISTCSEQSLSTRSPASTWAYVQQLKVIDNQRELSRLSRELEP
- test-description: Counterscreen qHTS for antagonist of cAMP-regulated guanine nucleotide exchange factor 3 (EPAC1) (AID 1645888);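 also: fluorescence loss as bound BODIPY-GDP is released from Rap1B; % of control where 0% means no effect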
- condition-notes: Rap1B-BODIPY-GDP nucleotide exchange, fluorescence; series mostly up to 154 µM
- Excerpt: Assay Provider (PI): Xiaodong Cheng Ph.D. The University of Texas Medical Branch, […], TX MLPCN Grant: NS066510 In multi-cellular eukaryotic organisms, the effects of cAMP are transduced by two ubiquitously-expressed intracellular cAMP receptors, the classic protein kinase A/cAMP-dependent protein kinase (PKA/cAPK) and the more recently discovered exchange protein directly activated by cAMP/cAMP-regulated guanine nucleotide exchange factor (EPAC/cAMP-GEF). […]
Results filed as inconclusive are left out. Activity calls are given as the source filed them. Calls follow the shape of the dose curve; as a rule, active = well fitted inhibition curve with a large enough effect; inconclusive = small, poorly fitted or top-dose-only effect; inactive = no such curve, though single readings can be large or run the other way.
test-readout: activity change, negative = inhibition

compound=O=C(OCc1ccc([N+](=O)[O-])cc1)c1cc(=O)c2ccccc2o1 experimental_value=inactive
compound=COc1cccc(NC(=O)c2csc3c2CCCC3)c1 experimental_value="-28.5% [at 30.8 µM] (inactive)"
compound="CCC1CCCCN1CCCNC(=O)c1csc2c1CCCCC2 (configuration not stated)" experimental_value=inactive
compound=CCN(CC)CCn1c2c(c(SCC(=O)Nc3nc4ccccc4s3)nc1=O)CCCC2 experimental_value=inactive
compound=O=C(CNC(=O)c1sc2ccccc2c1Cl)Nc1ccccc1F experimental_value="-19.6% [at 30.8 µM] (inactive)"
compound=O=C(O)CN1C(=O)/C(=C\c2ccccc2OCc2ccc(Cl)cc2Cl)SC1=S experimental_value="-18.8% [at 30.8 µM] (inactive)"
compound=O=C(c1ccco1)N(Cc1ccc([N+](=O)[O-])cc1)c1ccc(Br)cc1 experimental_value="10.5% [at 30.8 µM] (inactive)"
compound=CC(/C=C1\SC(=S)N(NS(=O)(=O)c2ccc(C)cc2)C1=O)=C\c1ccccc1 experimental_value=inactive
compound=COc1cn(CC(=O)Nc2cccc(C)c2C)c(CN2CCCCC2)cc1=O experimental_value=inactive
compound=CCc1ccc(NC(=O)CSc2nnc(Cc3cccn3C)n2-c2ccc(OC)cc2)cc1 experimental_value="-10.1% [at 30.8 µM] (inactive)"
compound=Cc1noc(C)c1CSc1ncnc2sc(C)c(C)c12 experimental_value=inactive
compound=OCC[n+]1ccc(/C=C/c2c[nH]c3ccccc23)cc1 experimental_value=inactive
compound=Nn1cnnc1N/N=C/c1ccc(Cl)c([N+](=O)[O-])c1 experimental_value=inactive
compound=CC(/C=C1\SC(=S)N(NS(=O)(=O)c2ccccc2)C1=O)=C\c1ccccc1 experimental_value="-10.4% [at 30.8 µM] (inactive)"
compound="COCOCCn1cc(CN2CCS(=O)(=O)N(Cc3ccc(-c4ccc(Cl)cc4)cc3)C(CC(C)C)C2=O)nn1 (configuration not stated)" experimental_value=inactive
compound=O=S1(=O)CCN2C(Cc3ccc(SC(F)F)cc3)=CSC2=N1 experimental_value=inactive
compound=CCCCNC(=O)Cn1nc(N2CCN(c3ccccc3OC)CC2)ccc1=O experimental_value=inactive
compound="COc1ccc(-n2c(SCC(=O)Nc3nccs3)nc3c(c2=O)SC(C)C3)cc1 (configuration not stated)" experimental_value=inactive
compound=Cc1ccc(-c2cc3ccccc3nc2N2CCOCC2)cc1 experimental_value=inactive
compound=Cc1ccc(Cl)cc1NC(=O)c1ccccc1OCC(=O)Nc1ccc(Cl)cc1 experimental_value="-9.99% [at 30.8 µM] (inactive)"
compound=N#Cc1c(-c2ccccc2)nc(SCc2ccc(Cl)cc2)[nH]c1=O experimental_value=inactive
compound=CCOC(=O)c1oc2ccccc2c1CN1CCN(C(=O)c2ccccc2)CC1 experimental_value=inactive

---

- Tested on: CP269
- test-description: qHTS profiling for inhibitors of Plasmodium falciparum proliferation (AID 504749); also: nearly all actives have a fitted effect of over 60% in size
- condition-notes: P. falciparum in erythrocytes, SYBR Green DNA, 72 h; series mostly up to 12.8 µM
Results filed as inconclusive are left out. Activity calls are given as the source filed them. Calls come from the whole dose curve; as a rule, active = well fitted inhibition curve with a large enough effect; inconclusive = small, poorly fitted or top-dose-only effect; inactive = flat fitted curve, though single readings scatter.
Possible outcomes: yes = active, no = inactive

compound=C[C@@H](C(=O)O)c1ccc(C(=O)c2ccccc2)s1 classification=no
compound="CC(=O)OC1CCC2C3CCc4cc(O)ccc4C3CCC12C (stereo not drawn)" classification=no
compound=C[C@H](C(=O)O)c1cccc(Oc2ccccc2)c1 classification=no
compound=NS(=O)(=O)c1cc2c(cc1C(F)(F)F)N[C@H](Cc1ccccc1)NS2(=O)=O classification=no
compound=NC(=O)c1cc[n+](CC2=C(C(=O)[O-])N3C(=O)[C@@H](NC(=O)Cc4cccs4)[C@@H]3SC2)cc1 classification=no
compound="C[C@@H]1O[C@H](O[C@@H]2\\C=C/C=C\\C=C/C=C\\C[C@H](C)OC(=O)/C=C\\[C@H]3O[C@@H]3C[C@H](O)C[C@]3(O)C[C@@H](O)[C@@H](C(=O)O)[C@H](C2)O3)[C@@H](O)[C@H](N)[C@@H]1O (stereo in doubt)" classification=no
compound="CCC1OC(=O)C(C)[C@@H](O[C@H]2C[C@@](C)(OC)C(O)C(C)O2)C(C)[C@@H](O[C@@H]2OC(C)CC(N(C)C)C2O)[C@@](C)(O)CC(C)C(=O)[C@@H](C)C(O)[C@]1(C)O (stereo partly drawn)" classification=no
compound=CN[C@H]1[C@H](O)[C@@H](O[C@@H]2[C@H](O)[C@@H](O[C@H]3OC(CN)=CC[C@H]3N)[C@@H](N)C[C@H]2N)OC[C@@]1(C)O classification=no
compound=CCN(CC)[C@@H](C)CN1c2ccccc2Sc2ccccc21 classification=no
compound=O=C(O)COCCN1CCN([C@@H](c2ccccc2)c2ccc(Cl)cc2)CC1 classification=no
compound=C=CCN1C(=CCO)[C@H]2C[C@H]3[C@@H]1CC[C@@]31c3ccccc3N3C=C4[C@@H]5N(/C=C/2[C@H]31)c1ccccc1[C@]51CC[C@H]2[C@H]1C[C@@H]4/C(=C/CO)N2CC=C classification=no
compound="COC1CC(O[C@H]2/C(C)=C/CC3CC(C[C@]4(CCC(C)C(C5CCCCC5)O4)O3)OC(=O)[C@H]3C=C(C)/C(=N/O)C4OC/C(=C\\C=C\\[C@@H]2C)[C@@]43O)OC(C)C1O (stereo partly drawn)" classification=no
compound=C[C@@]12CC[C@H]3[C@@H](CCC4=CC(=O)CC[C@]43C)[C@H]1CC[C@H]2C(=O)CO classification=no
compound=COc1cc2nc(N3CCN(C(=O)[C@@H]4CCCO4)CC3)nc(N)c2cc1OC classification=no
compound=CCCC[C@H](CC)CN1CN(C[C@@H](CC)CCCC)CC(C)(N)C1 classification=no
compound=CC(C)NC[C@H]1CCc2cc(CO)c([N+](=O)[O-])cc2N1 classification=no
compound="CO[C@]1(NC(=O)C2SC(=C(C(N)=O)C(=O)O)S2)C(=O)N2C(C(=O)O)=C(CSc3nnnn3C)CS[C@H]21 (stereo partly drawn)" classification=no
compound="CCCC(=O)O[C@]1(C(=O)CO)CCC2[C@@H]3CCC4=CC(=O)CC[C@]4(C)C3C(O)C[C@]21C (stereo partly drawn)" classification=no
compound=C[C@H](O)Cn1cnc2c1c(=O)n(C)c(=O)n2C classification=no
compound=C=C1c2c(Cl)ccc(O)c2C(O)=C2C(=O)[C@@]3(O)C(O)=C(C(N)=O)C(=O)[C@@H](N(C)C)[C@@H]3[C@@H](O)[C@H]12 classification=no
compound=COc1ccc(C[C@@](C)(N)C(=O)O)cc1OC classification=no
compound=CCN[C@@H]1C[C@H](N)[C@H](O[C@H]2OC(CN)=CC[C@H]2N)[C@@H](O)[C@H]1O[C@H]1OC[C@@](C)(O)[C@@H](NC)[C@@H]1O classification=no
compound="CCOC(=O)C1=CC(OC(CC)CC)C(NC(C)=O)C(N)C1 (stereo not drawn)" classification=no
compound="C=Cc1c(C)/c2[n-]/c1=C\\c1[n-]c(c(CC)c1C)/C=c1\\[n-]c3c(c1C)C(=O)C(C(=O)[O-])C=3c1[n-]c(c(C)c1CCC(=O)[O-])\\C=2.[Cu].[Na+].[Na+] (stereo not drawn)" classification=no
compound=O=C(OC[C@@H](O)CO)c1ccccc1Nc1ccnc2cc(Cl)ccc12 classification=no
compound=CC(=O)N[C@H](CC(C)C)C(=O)O classification=no
compound=CC(C)(C)NC[C@@H](O)COc1ccccc1C1CCCC1 classification=yes
compound=COCC(=O)Nc1c(I)c(C(=O)NC[C@@H](O)CO)c(I)c(C(=O)N(C)C[C@@H](O)CO)c1I classification=no
compound="NC(CCC(=O)N[C@@H](CS)C(=O)NCC(=O)O)C(=O)O (stereo partly drawn)" classification=yes
compound="C[C@]12CCC(=O)C=C1CCC1C2C(=O)C[C@]2(C)C1CC[C@]2(O)C(=O)CO (stereo partly drawn)" classification=no
compound="CC(C)=CCC[C@](C)(O)C1CC=C(C)CC1 (stereo partly drawn)" classification=no
compound=Cc1ncc([N+](=O)[O-])n1C[C@H](O)CCl classification=no
compound=NC[C@@H]1O[C@H](O[C@H]2[C@H](O)[C@H](O[C@@H]3O[C@H](CO)[C@@H](O)[C@H](N)[C@@H]3O)[C@@H](N)C[C@H]2N)[C@@H](O)[C@H](O)[C@@H]1O classification=no
